Where these numbers come from: the kinase profiling compilation of Christmann-Franck et al. (2016)

Could you please report measured kinase still bound, per cent of control for the items listed next?
# TARGET_OF_ASSAY: JAK2 JH1 catalytic (human) (UniProt O60674)
# Sequence (O60674 whole entry, looked up): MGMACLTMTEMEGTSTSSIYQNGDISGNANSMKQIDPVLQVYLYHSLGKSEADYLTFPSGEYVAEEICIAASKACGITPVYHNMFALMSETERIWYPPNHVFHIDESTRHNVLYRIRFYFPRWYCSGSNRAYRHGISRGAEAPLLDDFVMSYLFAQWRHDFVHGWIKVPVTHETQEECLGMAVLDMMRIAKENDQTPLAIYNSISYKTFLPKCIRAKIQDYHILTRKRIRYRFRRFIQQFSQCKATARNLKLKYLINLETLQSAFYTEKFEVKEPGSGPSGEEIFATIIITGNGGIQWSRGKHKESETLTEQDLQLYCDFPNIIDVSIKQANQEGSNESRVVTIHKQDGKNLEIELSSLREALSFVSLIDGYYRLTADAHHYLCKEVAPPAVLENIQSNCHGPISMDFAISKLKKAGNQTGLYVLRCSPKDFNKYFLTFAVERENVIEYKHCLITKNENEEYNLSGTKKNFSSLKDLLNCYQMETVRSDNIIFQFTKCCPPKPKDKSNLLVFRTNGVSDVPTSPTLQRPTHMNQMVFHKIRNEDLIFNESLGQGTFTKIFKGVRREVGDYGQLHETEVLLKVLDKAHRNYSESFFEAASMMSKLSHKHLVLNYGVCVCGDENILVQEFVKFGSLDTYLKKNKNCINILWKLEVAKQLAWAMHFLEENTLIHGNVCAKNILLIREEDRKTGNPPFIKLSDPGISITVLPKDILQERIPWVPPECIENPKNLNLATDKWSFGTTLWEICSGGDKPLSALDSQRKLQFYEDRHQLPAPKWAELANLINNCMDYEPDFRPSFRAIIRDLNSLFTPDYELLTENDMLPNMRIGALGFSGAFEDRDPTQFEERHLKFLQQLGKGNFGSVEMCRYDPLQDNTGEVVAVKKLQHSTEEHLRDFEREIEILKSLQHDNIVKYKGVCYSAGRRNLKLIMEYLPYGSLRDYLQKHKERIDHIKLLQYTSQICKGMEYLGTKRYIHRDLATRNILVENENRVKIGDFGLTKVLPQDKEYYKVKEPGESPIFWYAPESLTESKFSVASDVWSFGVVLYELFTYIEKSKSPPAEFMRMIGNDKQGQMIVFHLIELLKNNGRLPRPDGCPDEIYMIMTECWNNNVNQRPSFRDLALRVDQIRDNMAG
# METHOD_NOTES: KINOMEscan competition binding
# TEST_SETTINGS: compound 10.0 µM
Answers are plain numbers, in %.

Below: 3 compounds and their reported kinase still bound, per cent of control.
SMI: COc1cc(C(=O)NC2CCN(C)CC2)ccc1Nc1ncc2c(n1)N(C1CCCC1)CCC(=O)N2C(C)C
TARGET_OF_ASSAY: JAK2 JH1 catalytic (human) (UniProt O60674)
RESULT_UNITS: %
kinase still bound, per cent of control: 100
--
SMI: CCC(=O)N1CCN(c2ccc(-n3c(=O)ccc4cnc5ccc(-c6cnc7ccccc7c6)cc5c43)cc2C(F)(F)F)CC1
TARGET_OF_ASSAY: JAK2 JH1 catalytic (human) (UniProt O60674)
RESULT_UNITS: %
kinase still bound, per cent of control: 65
--
SMI: CCN1CCN(Cc2ccc(Nc3ncc4c(n3)N(C)c3ccccc3C(=O)N4C)cc2C(F)(F)F)CC1
TARGET_OF_ASSAY: JAK2 JH1 catalytic (human) (UniProt O60674)
RESULT_UNITS: %
kinase still bound, per cent of control: 0

Entry C=CC(=O)Nc1cccc(Oc2nc(Nc3ccc(N4CCN(C)CC4)cc3OC)ncc2Cl)c1 ; kinase still bound, per cent of control = 100

###

Could you please report measured kinase still bound, per cent of control for the items listed next?
# TARGET_OF_ASSAY: ULK2 (human) (UniProt Q8IYT8)
# Sequence (Q8IYT8 whole entry, looked up): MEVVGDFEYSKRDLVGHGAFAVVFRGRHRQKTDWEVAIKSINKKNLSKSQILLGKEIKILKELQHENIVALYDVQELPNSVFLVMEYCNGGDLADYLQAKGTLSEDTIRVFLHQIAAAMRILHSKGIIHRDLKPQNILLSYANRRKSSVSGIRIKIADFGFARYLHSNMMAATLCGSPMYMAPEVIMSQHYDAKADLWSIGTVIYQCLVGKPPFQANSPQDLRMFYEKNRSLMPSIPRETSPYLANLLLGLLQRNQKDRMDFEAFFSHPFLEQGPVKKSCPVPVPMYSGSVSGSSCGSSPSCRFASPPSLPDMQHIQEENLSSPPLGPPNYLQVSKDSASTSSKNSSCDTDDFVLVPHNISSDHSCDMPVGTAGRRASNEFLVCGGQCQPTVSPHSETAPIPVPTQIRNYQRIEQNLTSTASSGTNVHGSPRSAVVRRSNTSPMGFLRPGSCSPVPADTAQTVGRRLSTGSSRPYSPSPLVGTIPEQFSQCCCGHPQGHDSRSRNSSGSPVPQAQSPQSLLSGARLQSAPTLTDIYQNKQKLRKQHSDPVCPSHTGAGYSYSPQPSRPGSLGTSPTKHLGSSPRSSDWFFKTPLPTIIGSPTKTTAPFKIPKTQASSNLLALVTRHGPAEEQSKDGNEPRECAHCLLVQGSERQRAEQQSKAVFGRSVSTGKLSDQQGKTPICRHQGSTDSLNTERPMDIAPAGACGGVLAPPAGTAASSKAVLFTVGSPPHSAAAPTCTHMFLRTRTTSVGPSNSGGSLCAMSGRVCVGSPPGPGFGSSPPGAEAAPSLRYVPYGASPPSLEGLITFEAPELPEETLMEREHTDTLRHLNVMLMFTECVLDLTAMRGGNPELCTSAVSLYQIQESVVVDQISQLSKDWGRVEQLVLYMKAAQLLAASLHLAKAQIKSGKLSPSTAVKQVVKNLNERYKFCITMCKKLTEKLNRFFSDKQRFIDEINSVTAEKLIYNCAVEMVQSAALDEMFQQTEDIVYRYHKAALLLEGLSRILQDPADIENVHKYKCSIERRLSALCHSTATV
# METHOD_NOTES: KINOMEscan competition binding
# TEST_SETTINGS: compound 10.0 µM
Give bare numbers, in %.

COMPOUND: Cc1cc([C@@H](C)Nc2ccccc2C(=O)O)c2nc(N3CCOCC3)cc(=O)n2c1
RESULT_UNITS: %
kinase still bound, per cent of control: 100
//
COMPOUND: Cc1ccc(C(=O)Nc2cccc(C(F)(F)F)c2)cc1Nc1cncc(C(N)=O)c1
RESULT_UNITS: %
kinase still bound, per cent of control: 100
//
COMPOUND: COc1cc(N2CCN(C)CC2)ccc1Nc1nc(N)c(C(=O)c2c(Cl)cccc2Cl)s1
RESULT_UNITS: %
kinase still bound, per cent of control: 72
//
COMPOUND: CCC(=O)N1CCN(c2ccc(-n3c(=O)ccc4cnc5ccc(-c6cnc7ccccc7c6)cc5c43)cc2C(F)(F)F)CC1
RESULT_UNITS: %
kinase still bound, per cent of control: 75
//
COMPOUND: O=C(NC1CC1)c1cccc(-c2ccc3c(NC(=O)C4CC4)n[nH]c3c2)c1
RESULT_UNITS: %
kinase still bound, per cent of control: 77

Please look at the items below and tell me kinase still bound, per cent of control for each one, in order.
1. C=CC(=O)Nc1cc(NC(=O)c2ccc(C)c(NC(=O)c3ccno3)c2)cc(C(F)(F)F)c1
2. O=C1Nc2ccc(I)cc2/C1=C/c1cc(Br)c(O)c(Br)c1
3. COc1cc(C(=O)NC2CCN(C)CC2)ccc1Nc1ncc2c(n1)N(C1CCCC1)CCC(=O)N2C(C)C
4. O=C(O)c1ccc(Nc2ncc3c(n2)-c2ccc(Cl)cc2C(c2c(F)cccc2F)=NC3)cc1
5. COc1cc(C(=O)NC2CCN(C)CC2)ccc1Nc1ncc2c(n1)N(C1CCCC1)C(C)CC(=O)N2C (centres undefined)
6. CN(C)C/C=C/C(=O)Nc1cccc(Nc2ncc3c(n2)N(C)c2ccccc2C(=O)N3C)c1
7. N#Cc1c(NC(=O)c2cccc3ccccc23)sc2c1CCCC2
8. Cn1c(=O)n(-c2ccc(C(C)(C)C#N)cc2)c2c3cc(-c4cnc5ccccc5c4)ccc3ncc21

## Output
100
90
100
100
100
0.2
98
100

Please look at the items below and tell me kinase still bound, per cent of control for each one, in order.
1. CCOc1cc2ncc(C#N)c(Nc3ccc(OCc4ccccn4)c(Cl)c3)c2cc1NC(=O)/C=C/CN(C)C
2. C=CC(=O)Nc1cccc(Oc2nc(Nc3ccc(N4CCN(C)CC4)cc3OC)ncc2Cl)c1
3. CC[C@@H]1C(=O)N(C)c2cnc(Nc3ccc(C(=O)NC4CCN(C)CC4)cc3OC)nc2N1C1CCCC1
4. OCCCNc1cc(-c2ccnc(Nc3cccc(Cl)c3)n2)ccn1
5. Cc1ccc(NC(=O)c2cccc(C(C)(C)C#N)c2)cc1Nc1ccc2ncn(C)c(=O)c2c1

## Output
[100, 2, 100, 100, 100]

Please look at the items below and tell me kinase still bound, per cent of control for each one, in order.
1. O=C(NOC[C@H](O)CO)c1ccc(F)c(F)c1Nc1ccc(I)cc1F
2. C=CC(=O)Nc1cccc(Nc2nc(N[C@H]3CC[C@H](N(C)C)CC3)nc3c2ncn3C(C)C)c1
3. Nc1ccc(-c2ccc3ncc4ccc(=O)n(-c5cccc(C(F)(F)F)c5)c4c3c2)cn1
4. CCN1CCN(Cc2ccc(Nc3ncc4c(n3)N(C)c3ccccc3C(=O)N4C)cc2C(F)(F)F)CC1

## Output
1: 97; 2: 2; 3: 95; 4: 0

Please look at the items below and tell me kinase still bound, per cent of control for each one, in order.
1. CCCS(=O)(=O)Nc1ccc(F)c(C(=O)c2c[nH]c3ncc(-c4ccc(Cl)cc4)cc23)c1F
2. Cc1ccc2nc(NCCN)c3ncc(C)n3c2c1

## Output
1: 100; 2: 100
